I'd appreciate it if you could supply melting point values for the items below.

Example entries begin here.
Cc1cccc(S(=O)(=O)n2cncn2)c1C#N: 142 to 144 °C
CC(C)(C)C(=O)CN1C(=O)C(NC(=O)Nc2cccc(C(=O)NS(C)(=O)=O)c2)CN(c2ccccc2)c2ccccc21 (stereo not given): 229 to 233 °C
Cc1nccn1-c1nc(-c2ccc(Cl)cc2)c(CCO)o1: 159 to 160 °C
COC(=O)c1ccc(/C=C/c2nc(-c3ccc4ccccc4c3)oc2C)cc1: 216 to 217 °C
O=P(c1ccccc1)(c1ccccc1)C(O)C(O)P(=O)(c1ccccc1)c1ccccc1 (stereo not given): 211 to 214 °C
O=C(O)C1=Cc2cc(Oc3ccc(C(F)(F)F)cc3)ccc2OC1C(F)(F)F (stereo not given): 154 °C

# return melting point for each item in the list
1. O=C(O)CCCC#CCNS(=O)(=O)c1ccc(Cl)cc1
2. CS(=O)(=O)c1ccnc(Oc2ccccc2)n1
3. N#Cc1ccc2c(c1)C(=O)CC2
4. Oc1ccccc1C=Cc1nc2ccccc2s1
5. O=C(CCCc1ccccc1)N[C@@H](Cc1ccccc1)C(=O)O
6. CCN(N)c1cnn(-c2cccc(C(F)(F)F)c2)c(=O)c1

(A)
1: 91 to 93 °C; 2: 86 to 87 °C; 3: 109 °C; 4: 235 to 236 °C; 5: 178 °C; 6: 108 to 110 °C

----------
Recorded Endpoint: melting point

Below, each entry is followed by its recorded melting point result.
CSc1ccc(OC(C)c2ccnc3ncnn23)cc1 (stereo not given): 84 to 86 °C
CC(C)(C)OC(=O)N(CCCC(=O)NO)Cc1cc2nc(-c3cccc4[nH]ncc34)nc(N3CCOCC3)c2s1: 149 to 152 °C
CC(=O)N(C)c1ccnc2c(NC(=O)c3c(Cl)cccc3Cl)cccc12: 227 to 230 °C

Please look at the items below and tell me melting point for each one, in order.
1. Oc1ccc2ccc(OCc3nc4ccccc4s3)cc2c1
2. COC(=O)C=C(CC(=O)OC)NCc1ccccc1

(A)
["205 to 207 °C", "67 to 69 °C"]

Give melting point for each of the items listed below.
1. CSC1(SC)C(=O)CC2C3CCC4=CC(=O)C=CC4(C)C3(F)C(OC(C)=O)CC21C (stereo not given)
2. Nc1ccc(-c2nc(-c3ccco3)no2)c(Cl)c1

(A)
1. 225 to 227 °C
2. 175 to 176 °C

Please give melting point, item by item, for the list that follows.
1. CC1=C(OCC(C)C)CCC(C)(C)C1(O)C[Si](C)(C)C (stereo not given)
2. COc1ccc2[nH]cc(-c3cc4c(-c5c(C)noc5C)ccnc4[nH]3)c2c1
3. COC(=O)CN1C(=S)CN=C(c2ccccc2)c2cc(Cl)ccc21

(A)
1. 50 °C
2. 270 to 271 °C
3. 180 to 182 °C

----------
Recorded Endpoint: melting point

// known answers, use as guide
Oc1cc(C(F)(F)F)nn1C1CCCCO1 (stereo unspecified): 129 to 130 °C
Cc1nc(N2CCN(CCCC(F)(F)F)C2=O)sc1-c1cc[nH]n1: 185 to 186 °C

State the recorded melting point for every item in the following list.
1. COc1cccc(OC)c1C(=O)P(=S)(C(=O)c1c(OC)cccc1OC)c1ccccc1
2. Nc1nccc2cc(CNC(=O)C3CCCN3)ccc12 (stereo unspecified)
3. Cc1snc(O)c1C(N)=O
4. CCNC(=O)c1ccc(-c2ccc3nnn(Cc4cc5cccnc5cc4F)c3n2)cc1Cl
5. COC(=O)c1nc(NC(C)=O)sc1-c1ccc(SC)cc1
6. O=c1c([N+](=O)[O-])c(Cl)nc2sc(CCC3CCCCC3)nn12
7. CCCCNc1nc2c(C(=O)OCC)cnn2c2c1cnc1c2cnn1CC

(A)
1: 155 °C; 2: 140 to 142 °C; 3: 248 to 250 °C; 4: 197 to 199 °C; 5: 253 to 254 °C; 6: 136 to 137 °C; 7: 275 to 277 °C

Each molecule below has a reported value. Please supply its melting point.
1. Cc1ccc(C=CC(C#N)=NO)cc1
2. Cc1c(C=C(C#N)C#N)cc(C(C)(C)C)c(O)c1Br

(A)
1: 135 to 137 °C; 2: 144 °C
